Reference source for all entries: PubChem BioAssay (NCATS)

Molecular target: Cellular tumor antigen p53 (Homo sapiens)
Assay: Primary qHTS for small molecule compounds that upregulate eGFP-tagged delta133p53alpha (in N-terminal) cells. (AID 2060322);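 further: cells pre-induced with doxycycline then dosed without doxycycline; 0% = DMSO vehicle and 100% = reference activator; nearly all actives have a fitted effect of over 75% in size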
Details: NCI-H358 eGFP-delta133p53alpha fluorescence, 24 h; active compounds read high
From the text: Assay Development and Screening Technology National Center for Advancing Translational Sciences (NCATS), National Institute of Health (NIH), Rockville, Maryland Cellular senescence (CS) is one of the hallmarks of aging and age-related diseases. […] Here we report the development and validation of a cell-based quantitative high throughput screening (qHTS) assay in 1,536-well format. […]
Inconclusive results are not listed.
recorded_endpoint: activation (%)
The figure you give is taken to be in %; do not add the unit.

Reference set (4 entries):
molecule	recorded_endpoint	measured_value
CCCN(CCC)C1Cc2cc(OC)c(OC)cc2C1	activation	-2.4
CCOC(=O)NC(C)(C)Cc1ccc(Cl)cc1	activation	-6.33
COC1(C[S@@](=O)c2ccccc2)CCN(CCc2c[nH]c3ccc(F)cc23)CC1	activation	-6.68
Cc1cc([C@@H]2CCCN2C)on1	activation	4.82

For the next question, use this molecule.
Sample C[C@H]1O[C@@H](n2cnc3c(N)ncnc32)C[C@@H]1O — what was its activation?
15

----------
experiment: BET inhibitor-based combinations targeting novel dependencies in MECOM-rearranged (r) AML: MV-4-11 cell line (AID 2202233); details: MV-4-11 AML viability, CellTiter-Glo luminescence, 48 h; series mostly up to 46 µM; further: nearly all actives have a fitted effect of over 45% in size
Inconclusive results are not listed. The source made the active and inactive calls. Calls come from the whole dose curve; as a rule, active = well fitted inhibition curve with a large enough effect; inconclusive = small, poorly fitted or top-dose-only effect; inactive = no such curve, though single readings can be large or run the other way.
Result category, one only: True (active), False (inactive)

Solved cases below.
compound	classification
O=C(N[C@H]1CN2CCC1CC2)c1ccc(Cl)cc1	False
C[C@@H]1O[C@@H](O[C@@H]2C=C3CC[C@@H]4[C@H](CC[C@]5(C)[C@@H](c6ccc(=O)oc6)CC[C@]45O)[C@@]3(C)CC2)[C@H](O)[C@H](O)[C@H]1O	True
Cn1c(CCCC(=O)O)nc2cc(N(CCCl)CCCl)ccc21	True
C[C@]12Cc3cn[nH]c3C[C@@H]1CC[C@@H]1[C@@H]2CC[C@@]2(C)[C@H]1CC[C@]2(C)O	True
CC(C)c1cccc(C(C)C)c1O	False

# lookup: test call for C/C1=C/C[C@@H](/C(C)=C/c2csc(C)n2)OC(=O)C[C@H](O)C(C)(C)C(=O)[C@H](C)[C@@H](O)[C@@H](C)CCC1
True

# lookup: test call for O=P1(NCCCl)OCCCN1CCCl (stereo not given)
False

# lookup: test call for CCCC[N+]1(C)[C@H]2CC(OC(=O)[C@H](CO)c3ccccc3)C[C@H]1[C@H]1O[C@H]12 (stereo not given in full)
False

# lookup: test call for Cc1sc2c(c1C)C(c1ccc(Cl)cc1)=NC(CC(N)=O)c1nnc(C)n1-2 (stereo not given)
True

# lookup: test call for Cn1cc(C2=C(c3cn(C4CCN(Cc5ccccn5)CC4)c4ccccc34)C(=O)NC2=O)c2ccccc21
True

# lookup: test call for Fc1ccc(C(OCCN2CCN(CCCc3ccccc3)CC2)c2ccc(F)cc2)cc1
True

# lookup: test call for COc1cc2c(cc1F)C(c1ccccc1Cl)=Nc1c(n[nH]c1C)N2
True

# lookup: test call for COC(=O)[C@@]12OC[C@]34[C@H]([C@@H](O)[C@@H]1O)[C@@]1(C)CC(=O)C(O)=C(C)[C@@H]1C[C@H]3OC(=O)[C@H](OC(=O)/C=C(\C)C(C)C)[C@@H]24
True

# lookup: test call for CCOc1ccccc1-n1c(C(C)N2CCN(C(=O)COc3ccc(Cl)cc3)CC2)nc2ccccc2c1=O (stereo not given)
True

# lookup: test call for CN(C)c1cc2c(cc1Sc1nc3c(N)nccc3n1CCNCC(C)(C)C)OCO2
True
